B1: F1*; the commonest letter at each place (parent)
chain: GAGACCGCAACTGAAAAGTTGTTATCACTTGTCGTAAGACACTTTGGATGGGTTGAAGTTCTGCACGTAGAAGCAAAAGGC

Variants of: B1
Test: fraction ligated after 30 min (ligated reads / total reads); higher = more ligase activity
Conditions: with F1*sub RNA substrate (template-directed ligation), 42 °C
Class Satisfied: fraction ligated at least 0.8. Class Not satisfied: fraction ligated below 0.8.

[
  {
    "Residue change": "G47T A48C",
    "Class label": "Not satisfied"
  }
]

Threshold query (fraction ligated >= 0.8) on C26A A39G
Not satisfied

Threshold query (fraction ligated >= 0.8) on A24G T45G
Not satisfied

Threshold query (fraction ligated >= 0.8) on C28T A57C
Not satisfied

Threshold query (fraction ligated >= 0.8) on T35A C40T
Satisfied

Threshold query (fraction ligated >= 0.8) on C33G G38A
Satisfied
